# TEST TARGET: PI3Kα H1047R (T47D cells) (Homo sapiens, UniProt P42336, H1047R)
# Construct: endogenous in cells; host or cells: T47D cells
# Sequence (P42336 whole entry H1047R): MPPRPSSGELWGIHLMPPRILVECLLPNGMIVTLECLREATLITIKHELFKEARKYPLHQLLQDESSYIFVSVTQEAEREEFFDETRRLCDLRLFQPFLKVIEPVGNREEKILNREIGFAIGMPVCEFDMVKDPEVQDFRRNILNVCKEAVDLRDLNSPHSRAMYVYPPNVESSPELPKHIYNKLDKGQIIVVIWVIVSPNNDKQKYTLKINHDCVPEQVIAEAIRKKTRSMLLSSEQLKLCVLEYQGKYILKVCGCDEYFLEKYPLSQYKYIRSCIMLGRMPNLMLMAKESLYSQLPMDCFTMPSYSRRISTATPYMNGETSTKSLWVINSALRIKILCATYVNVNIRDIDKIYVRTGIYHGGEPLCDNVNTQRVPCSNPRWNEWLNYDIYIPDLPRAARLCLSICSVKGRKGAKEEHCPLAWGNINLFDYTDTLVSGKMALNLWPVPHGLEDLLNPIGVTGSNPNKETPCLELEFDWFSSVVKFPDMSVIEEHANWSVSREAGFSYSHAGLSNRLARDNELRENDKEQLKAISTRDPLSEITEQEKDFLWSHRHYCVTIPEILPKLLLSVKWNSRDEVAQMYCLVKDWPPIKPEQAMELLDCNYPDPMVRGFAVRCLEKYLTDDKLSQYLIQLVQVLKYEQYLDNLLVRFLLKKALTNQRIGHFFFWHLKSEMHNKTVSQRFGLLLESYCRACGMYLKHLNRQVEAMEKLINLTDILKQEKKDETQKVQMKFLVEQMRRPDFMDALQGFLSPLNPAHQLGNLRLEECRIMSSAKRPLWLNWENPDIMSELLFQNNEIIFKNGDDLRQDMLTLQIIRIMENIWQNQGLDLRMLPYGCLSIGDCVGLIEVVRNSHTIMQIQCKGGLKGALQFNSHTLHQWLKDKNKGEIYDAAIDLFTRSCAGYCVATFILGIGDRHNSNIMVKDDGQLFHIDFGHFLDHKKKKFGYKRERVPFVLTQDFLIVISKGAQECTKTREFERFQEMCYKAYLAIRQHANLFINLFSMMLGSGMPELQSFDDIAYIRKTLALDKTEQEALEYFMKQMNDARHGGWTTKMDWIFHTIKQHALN
# Sequence (P27986 whole entry partner): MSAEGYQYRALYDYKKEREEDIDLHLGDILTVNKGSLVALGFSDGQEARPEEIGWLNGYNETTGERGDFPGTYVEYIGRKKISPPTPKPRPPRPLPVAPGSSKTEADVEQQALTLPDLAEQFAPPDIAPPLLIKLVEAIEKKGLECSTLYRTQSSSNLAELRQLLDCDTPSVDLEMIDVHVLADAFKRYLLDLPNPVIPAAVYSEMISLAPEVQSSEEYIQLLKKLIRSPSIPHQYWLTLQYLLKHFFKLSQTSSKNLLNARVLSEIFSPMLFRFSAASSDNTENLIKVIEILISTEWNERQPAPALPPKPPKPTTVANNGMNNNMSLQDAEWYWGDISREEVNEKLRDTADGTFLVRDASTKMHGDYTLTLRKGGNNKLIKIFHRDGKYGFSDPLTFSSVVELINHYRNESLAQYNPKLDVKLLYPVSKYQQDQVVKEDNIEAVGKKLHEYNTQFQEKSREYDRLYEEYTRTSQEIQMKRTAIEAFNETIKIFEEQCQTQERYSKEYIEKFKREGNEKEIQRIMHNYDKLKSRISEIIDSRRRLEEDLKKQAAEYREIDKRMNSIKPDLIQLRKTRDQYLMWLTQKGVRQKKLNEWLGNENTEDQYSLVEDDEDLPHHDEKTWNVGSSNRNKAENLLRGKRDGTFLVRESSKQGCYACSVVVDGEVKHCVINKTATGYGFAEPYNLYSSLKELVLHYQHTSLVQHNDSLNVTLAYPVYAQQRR
# ASSAY TEXT: PI3Kα cellular assay: pAKT HTRF in T47D cells after EGF stimulation
# Format: cell-based
# APPLIED CONDITIONS: selectivity of T47D (H1047R) over SKBR3 (WT) pAKT IC50
RECORDED METRIC: T47D pAKT S473 HTRF IC50 (H1047R): T47D (H1047R) selectivity over SKBR3 (WT)

>>> endpoint_result("CC(Nc1ccccc1C(=O)O)c1cc(C(F)(F)F)cn2c(=O)cc(N3C[C@@H](C)O[C@@H](C)C3)nc12 (stereo partly shown) [Compound 898]")
"A (A denotes >20-fold)"
>>> endpoint_result("Cc1cc([C@@H](C)Nc2ccccc2C(=O)O)c2nc(-c3cnc4c(c3)c(C)c(C)n4C)c(C)c(=O)n2c1 (single isomer, unassigned) [Compound 804]")
"A (A denotes >20-fold)"
>>> endpoint_result("Cc1cc([C@@H](C)Nc2ccccc2C(=O)O)c2nc(-c3c(C)ccc4c3cnn4C)cc(=O)n2c1 [Compound 816]")
"C (C denotes ≤5-fold)"
>>> endpoint_result("CC(=O)N=S(C)(=O)c1ccccc1N[C@H](C)c1cc(C)cn2c(=O)cc(N3CCOCC3)nc12 (stereo partly shown) [Compound 827]")
"C (C denotes ≤5-fold)"

---

# TEST TARGET: PI3Kα H1047R (T47D cells) (Homo sapiens, UniProt P42336, H1047R)
# Construct: endogenous in cells; host or cells: T47D cells
# ASSAY TEXT: PI3Kα cellular assay: pAKT HTRF in T47D cells after EGF stimulation
# Format: cell-based
# APPLIED CONDITIONS: selectivity T47D (H1047R) over SKBR3 (WT), pAKT HTRF
# Protocol: SKBR3 or T47D cells are seeded in DMEM containing 10% FBS at 25k cells/well into 96-well cell culture format. […] 384 well plate is left overnight at room temperature before reading HTRF on an Envision plate reader. ND denotes value not determined with that assay for the specified compound; • for T47D (H1047R) selectivity over SKBR3 (WT): A denotes >20-fold; B denotes 20-fold≥value>5-fold; C denotes ≤5-fold. […] ND denotes value not determined with that assay for the specified compound.
RECORDED METRIC: T47D pAKT S473 HTRF IC50 (H1047R): T47D (H1047R) selectivity over SKBR3 (WT)

Example molecules with recorded T47D pAKT S473 HTRF IC50 (H1047R): T47D (H1047R) selectivity over SKBR3 (WT):
>>> endpoint_result("Cc1cc([C@H](C)Nc2ccccc2C(=O)O)c2nc(-c3ccc4[nH]c(=O)[nH]c4c3)cc(=O)n2c1 [Compound 500]")
"C (C denotes ≤5-fold)"
>>> endpoint_result("Cc1cc(C(C)Nc2ccccc2C(=O)O)c2nc(-c3ccc4[nH]nc(C)c4c3)cc(=O)n2c1 (stereo not drawn) [Compound 348]")
"A (A denotes >20-fold)"
>>> endpoint_result("Cc1cc(C(C)Nc2ccccc2C(=O)O)c2nc(-c3cccc(-c4nn[nH]n4)c3)cc(=O)n2c1 (stereo not drawn) [Compound 303]")
"C (C denotes ≤5-fold)"
>>> endpoint_result("Cc1cc([C@H](C)Nc2ccccc2C(=O)O)c2nc(N3CCC(C)(C)CC3)cc(=O)n2c1 [Compound 362]")
"C (C denotes ≤5-fold)"
>>> endpoint_result("Cc1cc([C@H](C)Nc2c(F)cccc2C(=O)O)c2nc(N3CCOCC3)cc(=O)n2c1 [Compound 334]")
"C (C denotes ≤5-fold)"

Input: So what's the measured T47D pAKT S473 HTRF IC50 (H1047R): T47D (H1047R) selectivity over SKBR3 (WT) for this one? C=CC(=O)Nc1ccc(C(=O)O)c(N[C@H](C)c2cc(C)cn3c(=O)c(C)c(N4Cc5ccccc5C4)nc23)c1 [Compound 1121]
Output: C (C denotes ≤5-fold)

Input: One more molecule: Cc1cc([C@@H](C)Nc2ccccc2C(=O)O)c2nc([C@@H]3CCOC3)cc(=O)n2c1 [Compound 538]
Output: C (C denotes ≤5-fold)

Input: Same for Cc1cc(C(C)Nc2ccccc2C(=O)O)c2nc(-c3ccc(CN4CCN(C(=O)C5CC5)CC4)c(F)c3)cc(=O)n2c1 (single isomer, unassigned) [Compound 421]
Output: C (C denotes ≤5-fold)

Input: // same read-out, input: Cc1cc([C@@H](C)Nc2ccccc2C(=O)O)c2nc(N3C[C@@H](C)O[C@@H](C)C3)cc(=O)n2c1 [Compound 319]
Output: A (A denotes >20-fold)

Input: Follow-up item: Cc1cc([C@H](C)Nc2ccccc2C(=O)O)c2nc(N3CC(Cl)C3)cc(=O)n2c1 [Compound 365]
Output: C (C denotes ≤5-fold)

Input: Moving on to Cc1cc(C(C)Nc2ccccc2C(=O)O)c2nc(-c3cc[nH]c(=O)c3)cc(=O)n2c1 (stereo not drawn) [Compound 380]
Output: C (C denotes ≤5-fold)

Input: Now the same for CC(=O)N1CCCC(c2cc(=O)n3cc(C)cc(C(C)Nc4ccccc4C(=O)O)c3n2)CC1 (stereo not drawn) [Compound 511]
Output: C (C denotes ≤5-fold)

Input: Now the molecule Cc1cc(C(C)Nc2ccccc2-c2cc(O)no2)c2nc(-c3cccc(F)c3)c(C)c(=O)n2c1 (stereo not drawn) [Compound 1367]
Output: A (A denotes >20-fold)

Input: Repeat for the following molecule: Cc1cc([C@@H](C)Nc2ccccc2S(C)(=O)=O)c2nc(-c3ccc(C4CCC(C)CC4)cc3)c(C)c(=O)n2c1 (stereo partly drawn) [Compound 1354]
Output: C (C denotes ≤5-fold)

---

Catalogue of IC50 values
# TEST TARGET: PI3Kα H1047R (T47D cells) (Homo sapiens, UniProt P42336, H1047R)
# Construct: endogenous in cells; host or cells: T47D cells
# ASSAY TEXT: PI3Kα cellular assay: pAKT HTRF in T47D cells after EGF stimulation
# Assay type: cell-based
# APPLIED CONDITIONS: T47D cells (PI3Kα H1047R), pAKT S473 HTRF, 1 hr compound, 20 ng/ml EGF 10 min

>>> endpoint_result("Cc1cc(C(C)Nc2cc(C#N)ccc2C(=O)O)c2nc(N3CCOCC3)cc(=O)n2c1 (centres unmarked)")
"> 2000 nM"

Input: Which value of IC50 has been reported for Cc1cc(C(C)Nc2ccccc2C(=O)O)c2nc(-c3ccc(CN4CCN(C(=O)C5CC5)CC4)c(F)c3)cc(=O)n2c1 (single isomer, unassigned) [Compound 421] in the records?
Output: > 2000 nM

Input: Same for Cc1cc(C(C)Nc2ccccc2C(=O)O)c2nc(N3CCN(c4ccncc4)CC3)cc(=O)n2c1 (centres unmarked)
Output: > 2000 nM

Input: Lookup Cc1cc(C(C)Nc2ccccc2C(=O)O)c2nc(-c3ccc[nH]c3=O)cc(=O)n2c1 (centres unmarked)
Output: > 2000 nM

Input: And Cc1cc([C@H](C)Nc2ccccc2C(=O)O)c2nc(Nc3ccc4[nH]c(=O)oc4c3)cc(=O)n2c1 ?
Output: > 2000 nM

Input: Same lookup for CONC(=O)c1ccc(-c2cc(=O)n3cc(C)cc([C@H](C)Nc4ccccc4C(=O)O)c3n2)cc1 , please.
Output: 100 to 500 nM

Input: Same question, Cc1cc([C@@H](C)NC2=C(CC(=O)O)C=CCC2)c2nc(N3CCSCC3)cc(=O)n2c1 this time
Output: > 2000 nM

Input: Entry to check: Cc1cc(C(C)Nc2ccccc2C(=O)O)c2nc(Nc3ccc4[nH]c(=O)oc4c3)cc(=O)n2c1 (centres unmarked)
Output: > 2000 nM

---

# TEST TARGET: PI3Kα H1047R (T47D cells) (Homo sapiens, UniProt P42336, H1047R)
# Construct: endogenous in cells; host or cells: T47D cells
# ASSAY TEXT: PI3Kα cellular assay: pAKT HTRF in T47D cells after EGF stimulation
# Format: cell-based
# APPLIED CONDITIONS: selectivity T47D (H1047R) over SKBR3 (WT), pAKT HTRF
RECORDED METRIC: T47D pAKT S473 HTRF IC50 (H1047R): T47D (H1047R) selectivity over SKBR3 (WT)

Example compounds with recorded T47D pAKT S473 HTRF IC50 (H1047R): T47D (H1047R) selectivity over SKBR3 (WT):
>>> endpoint_result("Cc1cc([C@@H](C)Nc2ccccc2C(=O)O)c2nc([C@H]3CCCOC3)c(C)c(=O)n2c1")
"A (A denotes >20-fold)"
>>> endpoint_result("Cc1cc([C@@H](C)Nc2c(F)cccc2C(=O)O)c2nc(N3CCOCC3)cc(=O)n2c1")
"C (C denotes ≤5-fold)"
>>> endpoint_result("Cc1cc([C@@H](C)Nc2ccccc2C(=O)O)c2nc([C@H]3CCCC(CC(F)F)C3)c(C)c(=O)n2c1 (stereo partly drawn)")
"A (A denotes >20-fold)"
>>> endpoint_result("Cc1cc([C@H](C)Nc2ccccc2)c2nc(-c3ccc(F)cc3)c(C)c(=O)n2c1")
"C (C denotes ≤5-fold)"
>>> endpoint_result("Cc1cc([C@@H](C)Oc2ccccc2C(=O)O)c2nc(-c3cccc(F)c3)c(C)c(=O)n2c1")
"C (C denotes ≤5-fold)"

Input: Request - read-out T47D pAKT S473 HTRF IC50 (H1047R): T47D (H1047R) selectivity over SKBR3 (WT) | tested on PI3Kα H1047R (T47D cells) (Homo sapiens, UniProt P42336, H1047R) | compound Cc1cc(C(C)Nc2ccccc2C(=O)O)c2nc(-c3ccc4[nH]nc(-c5ccccn5)c4c3)cc(=O)n2c1 (stereo not drawn) [Compound 318]
Output: C (C denotes ≤5-fold)

Input: Next up: Cc1cc([C@@H](C)Nc2ccccc2C(N)=O)c2nc(-c3cnc(C)c(Cl)c3)c(C)c(=O)n2c1
Output: A (A denotes >20-fold)

Input: What about Cc1cc([C@@H](C)Nc2ccccc2C(=O)O)c2nc(-c3ccc(-c4ccc5c(c4)CCO5)c(F)c3)c(C)c(=O)n2c1 ?
Output: A (A denotes >20-fold)

Input: Subsequent entry: Cc1cc([C@@H](C)Nc2ccccc2C(=O)O)c2nc(-c3ccc(C4CC4)nc3)cc(=O)n2c1
Output: A (A denotes >20-fold)

Input: Now try Cc1cc([C@@H](C)Nc2ccccc2C(=O)O)c2nc(-c3ccc4[nH]c(=O)[nH]c4c3)cc(=O)n2c1 .
Output: A (A denotes >20-fold)

Input: CCc1cc([C@@H](C)Nc2ccccc2C(=O)O)c2nc(N3CCOCC3)cc(=O)n2c1 ?
Output: C (C denotes ≤5-fold)
